protocol: NCI Yeast Anticancer Drug Screen. Data for the mlh1 rad18 strain (AID 175)
setup conditions: S. cerevisiae mlh1 rad18 strain growth inhibition; at 50.0 µM (retest, dose inferred, filed as 5.0); stronger effect = higher value
The panel holds about 79,000 compounds, 15% with a hit somewhere; the sample as a whole holds those more often. Activity calls are given as the source filed them. No stated cut-off is given here; in the data, active means growth inhibition above about 70%; inactive means the rest.
measurement name: growth inhibition

### Prompt Determine from records and report growth inhibition for O=C1Oc2ccccc2C(=O)/C1=C/N1C(=O)/C(=C/c2ccccc2)NC1=S
### Response 40% (inactive)

### Prompt Determine from records and report growth inhibition for CC(C)CCC(C)(C)c1cc(O)ccc1O
### Response 99% (active)

### Prompt Determine from records and report growth inhibition for CC(=O)Oc1cc2c(=O)oc3c(OC(C)=O)c(OC(C)=O)c(OC(C)=O)c4c(=O)oc(c1OC(C)=O)c2c34
### Response 45% (inactive)

### Prompt Determine from records and report growth inhibition for COc1ccc(C=O)cc1C[P+](c1ccccc1)(c1ccccc1)c1ccccc1
### Response 94% (active)

### Prompt Determine from records and report growth inhibition for Oc1ccc(C/C=C/c2ccccc2)cc1O
### Response 98% (active)

### Prompt Determine from records and report growth inhibition for COC(=O)CCC(NC(=S)N/N=C(\C)c1cnc2ccccc2n1)C(=O)OC (stereo unspecified)
### Response 15% (inactive)

### Prompt Determine from records and report growth inhibition for OCC1CCc2[nH]c3ccccc3c2C1 (stereo unspecified)
### Response -123% (inactive)

### Prompt Determine from records and report growth inhibition for FC(F)(F)COP1(OCC(F)(F)F)=NP(OCC(F)(F)F)(OCC(F)(F)F)=NP(c2ccccc2)(c2ccccc2)=N1
### Response 0% (inactive)

### Prompt Determine from records and report growth inhibition for NC(=O)C(=CNc1nc(-c2ccc(Br)cc2)cs1)C(N)=O
### Response 98% (active)

### Prompt Determine from records and report growth inhibition for CCOC(C)(OCC)C(N)c1ccccc1 (stereo unspecified)
### Response 9% (inactive)

### Prompt Determine from records and report growth inhibition for COc1ccc(-c2cc(=O)c3c(C)ccnc3[nH]2)cc1
### Response 39% (inactive)

### Prompt Determine from records and report growth inhibition for CCCCCCCCCCCCCCCc1nc(SCC(=O)O)n[nH]1
### Response 71% (active)

### Prompt Determine from records and report growth inhibition for N#CC1=CN(Cc2ccccc2)C(C#Cc2ccccc2)C=C1 (stereo unspecified)
### Response 4% (inactive)

### Prompt Determine from records and report growth inhibition for CCCCC(CC)COP(=O)(OCC(CC)CCCC)OCC(CC)CCCC (stereo unspecified)
### Response -12% (inactive)

### Prompt Determine from records and report growth inhibition for CCCCCCCCCCCCCCCC(=O)N1CC[N+](C)(C)CC1
### Response 99% (active)

### Prompt Determine from records and report growth inhibition for CCS(=O)(=O)c1ccc(NC(=O)OC2CC(C)CCC2C(C)C)cc1 (stereo unspecified)
### Response 92% (active)

### Prompt Determine from records and report growth inhibition for c1cc(SSc2ccncc2)ccn1
### Response 100% (active)

### Prompt Determine from records and report growth inhibition for Cc1cn(C(C#N)=C(C#N)C#N)c2ccccc12
### Response 16% (inactive)

### Prompt Determine from records and report growth inhibition for NNC(=O)C(=O)N/N=C(/CCC(=O)NCCc1ccccc1)CC(=O)c1ccccc1
### Response -3% (inactive)

### Prompt Determine from records and report growth inhibition for O=C(OCc1ccccc1)c1ccccc1Cl
### Response 14% (inactive)

### Prompt Determine from records and report growth inhibition for CC(COC(=O)C(c1ccccc1)C1C=CCCC1)CN1CCCC1 (stereo unspecified)
### Response 74% (active)
